Biological target: PRKCI (human)
Test: split-luciferase competition binding
Conditions: compound 10.0 µM
quantity: inhibition (%)
State the answer as a number, implicitly in %.

Problem: Reported inhibition for "COc1nccc(-c2c(-c3ccc(F)cc3)ncn2[C@H]2CC[C@H](O)CC2)n1" : what is it?
Result: 0

Problem: Reported inhibition for "O=S(=O)(c1cccc2c(Cl)cccc12)N1CCCNCC1" : what is it?
Result: 1

Problem: Reported inhibition for "O=C1NC(=O)c2c1c1c3ccccc3n3c1c1c2c2ccccc2n1C1CCC3O1" : what is it?
Result: 28

Problem: Reported inhibition for "COc1cc2ncn(-c3cc(OCc4ccccc4C(F)(F)F)c(C(N)=O)s3)c2cc1OC" : what is it?
Result: 0

Problem: Reported inhibition for "O=C(c1ccc(Nc2nccc(-c3cc4ccccc4s3)n2)cc1)N1CCC(N2CCCC2)CC1" : what is it?
Result: 0

Problem: Reported inhibition for COc1cc(CC2C(=O)OC[C@@H]2Cc2ccc(OC)c(OC)c2)ccc1O (stereo not given in full) : what is it?
Result: 0

Problem: Reported inhibition for "COc1cc2ncnc(Nc3ccc(Cl)cc3F)c2cc1OC" : what is it?
Result: 0

Problem: Reported inhibition for "CC(C)(C)n1nc(-c2ccc(Cl)cc2)c2c(N)ncnc21" : what is it?
Result: 0

Problem: Reported inhibition for "Cc1cc(I)ccc1Nc1c(C(=O)NOCC2CC2)cc(F)c(F)c1F" : what is it?
Result: 0

Problem: Reported inhibition for "O=C1NC(=O)C(c2ccccc2[N+](=O)[O-])=C1Nc1ccc(O)c(Cl)c1" : what is it?
Result: 0
